molecular target: human CD40 on cells (human, UniProt P25942 21-277); assay: cell-based or functional assay
Sequence (P25942 21-277 limits assumed): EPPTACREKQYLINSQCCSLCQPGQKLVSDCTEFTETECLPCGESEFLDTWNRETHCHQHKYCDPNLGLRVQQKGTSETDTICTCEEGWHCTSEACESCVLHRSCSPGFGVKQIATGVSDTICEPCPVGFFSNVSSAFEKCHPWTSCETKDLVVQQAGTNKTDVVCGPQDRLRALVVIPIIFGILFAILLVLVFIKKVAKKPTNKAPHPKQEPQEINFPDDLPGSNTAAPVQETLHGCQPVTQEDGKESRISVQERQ
For each record, write down the corresponding human B cell proliferation, no crosslinking, EC50.

For the binder 36F3 (antibody, IgG4, V domains shown, also called 4891-1) VH: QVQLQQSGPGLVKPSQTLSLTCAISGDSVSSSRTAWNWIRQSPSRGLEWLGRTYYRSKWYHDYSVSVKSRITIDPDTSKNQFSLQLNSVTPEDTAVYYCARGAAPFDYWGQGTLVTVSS VL: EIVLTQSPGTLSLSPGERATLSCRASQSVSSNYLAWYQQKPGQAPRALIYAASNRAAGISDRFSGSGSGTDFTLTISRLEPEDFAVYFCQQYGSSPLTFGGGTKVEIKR , report human B cell proliferation, no crosslinking, EC50.
> 16.7 nM

For the binder 33H6 (antibody, IgG4, V domains shown, also called 4883-1) VH: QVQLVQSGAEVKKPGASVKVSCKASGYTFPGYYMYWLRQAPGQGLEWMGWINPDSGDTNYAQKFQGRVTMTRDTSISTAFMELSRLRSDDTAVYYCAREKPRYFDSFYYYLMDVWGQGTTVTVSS VL: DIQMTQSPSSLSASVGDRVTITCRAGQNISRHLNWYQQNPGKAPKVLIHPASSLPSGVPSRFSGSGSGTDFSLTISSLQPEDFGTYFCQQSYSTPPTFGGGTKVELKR , report human B cell proliferation, no crosslinking, EC50.
> 16.7 nM

For the binder 37A6 (antibody, IgG4, V domains shown, also called 4865-1) VH: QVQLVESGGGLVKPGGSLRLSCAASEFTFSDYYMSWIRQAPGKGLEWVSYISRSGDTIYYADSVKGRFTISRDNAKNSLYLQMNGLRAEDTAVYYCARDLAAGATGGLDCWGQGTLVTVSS VL: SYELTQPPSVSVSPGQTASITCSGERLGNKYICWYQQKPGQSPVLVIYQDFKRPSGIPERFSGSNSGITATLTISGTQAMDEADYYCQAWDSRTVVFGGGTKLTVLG , report human B cell proliferation, no crosslinking, EC50.
> 16.7 nM
